Reference source: ChEMBL document CHEMBL5604063

Assignment: determine reported pIC50 for the given molecules.
system under test: Genome polyprotein (dengue virus type 2)
Format: functional, Thailand/16681/1984
pIC50: −log10 of the molar value.

// returns reported pIC50 for input CCNC(=O)Nc1cc(Cl)cc(C(=O)Nc2cccc(C3CCNCC3)c2)c1
< 4.00

Report pIC50 for O=C(O)c1cc(Cl)ccc1NS(=O)(=O)c1ccc(OCc2cccnc2)cc1 please.
< 4.00

Entry CC(=Cc1cccc(-c2nnn[nH]2)c1)c1cc(Cl)cc(NC(=O)OCc2ccccc2)c1 : reported pIC50 = ?
5.02

Fill in: pIC50 of NCc1cccc(NC(=O)[C@H](NC(=O)OCc2ccccc2)c2ccc(CO)cc2)c1 is ___
< 4.00

Field request: pIC50 | item: O=C(Nc1ccc2c(c1)CNC2)c1cc(Cl)cc2[nH]c(-c3nc4c(s3)CCC4)nc12
4.79

# get_value(readout='pIC50', item= Cc1[nH]nc2c1CC[C@H](NC(=O)c1cccc3c1CC(=O)N3)C2 )
< 4.00

Need pIC50, item CC1(C)C(=O)N[C@H]2CCCN(C(=O)Nc3ccc4c(c3)CNC4)[C@H]21
< 4.00

Returns the measured pIC50 for the input molecule. Input: CC(C)(C)OC(=O)NCc1cc(Cl)cc(C(=O)O)c1
< 4.00

Look up pIC50: NCc1cccc(NC(=O)c2ccc(OCC(F)(F)F)c(NC(=O)OCc3ccccc3)c2)c1
< 4.00

I would be grateful if you could share the reported pIC50 for Cc1c(C(=O)Nc2cc(CCCN)ccn2)cc(C(C)C)n1C .
< 4.00

Entry CNC(=O)c1cc(CN)cc([C@@H]2C[C@H]2c2cc(Cl)cc(NC(=O)OCc3ccccc3)c2)c1 : reported pIC50 = ?
4.53

Query (molecule): Cc1cc(C(=O)Nc2cccc(CN)c2)c2cnn(-c3ccc(F)cc3)c2n1 ; field requested: pIC50
< 4.00

Requested read-out: pIC50. Entry: O=C(Nc1cc(Cl)cc(C(=O)Nc2cccc(C(=O)O)c2)c1)OCc1ccccc1
4.37

// pIC50 lookup, key: Cc1cc(C(=O)Nc2ccc3c(c2)CNC3)c2cnn(C)c2n1
< 4.00

Fill in the blank: the reported pIC50 of O=C(Nc1ccc2c(c1)CN[C@H]2CCO)c1cc(F)cc2[nH]ncc12 is ____.
4.29

pIC50 lookup needed for NC(=O)c1cc(Cl)ccc1NS(=O)(=O)c1ccc(-c2ccc(F)cc2)cc1 , thanks.
4.48

Which pIC50 reading was recorded for the molecule O=C(Nc1cc(Cl)cc(C(=O)Nc2ccc3c(c2)C(=O)OC3)c1)OCc1ccccc1 ?
< 4.00

What value of measured pIC50 is listed for COc1cncc(CNC(=O)[C@@H](NC(=O)OCc2ccccc2)c2ccc(OCc3ccccc3)cc2)c1 ?
< 4.00

Given O=C(Nc1cccnc1)C1CCN(Cc2c[nH]c3ccccc23)CC1 , state its recorded pIC50.
< 4.00

Consider the molecule CC(C)C[C@H](NC(=O)c1cc(Cl)cc(NC(=O)OCc2ccccc2)c1)c1nnn[nH]1 and give its measured pIC50.
4.13

---

For each entry below, report its pIC50 value.
system under test: Genome polyprotein (dengue virus type 2, UniProt P29990)
Sequence (P29990 1346-1475 limits assumed): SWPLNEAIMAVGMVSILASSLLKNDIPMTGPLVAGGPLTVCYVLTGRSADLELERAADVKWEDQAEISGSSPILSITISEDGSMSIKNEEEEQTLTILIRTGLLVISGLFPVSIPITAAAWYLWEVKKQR
Sequence (P29990 1476-2093 limits assumed): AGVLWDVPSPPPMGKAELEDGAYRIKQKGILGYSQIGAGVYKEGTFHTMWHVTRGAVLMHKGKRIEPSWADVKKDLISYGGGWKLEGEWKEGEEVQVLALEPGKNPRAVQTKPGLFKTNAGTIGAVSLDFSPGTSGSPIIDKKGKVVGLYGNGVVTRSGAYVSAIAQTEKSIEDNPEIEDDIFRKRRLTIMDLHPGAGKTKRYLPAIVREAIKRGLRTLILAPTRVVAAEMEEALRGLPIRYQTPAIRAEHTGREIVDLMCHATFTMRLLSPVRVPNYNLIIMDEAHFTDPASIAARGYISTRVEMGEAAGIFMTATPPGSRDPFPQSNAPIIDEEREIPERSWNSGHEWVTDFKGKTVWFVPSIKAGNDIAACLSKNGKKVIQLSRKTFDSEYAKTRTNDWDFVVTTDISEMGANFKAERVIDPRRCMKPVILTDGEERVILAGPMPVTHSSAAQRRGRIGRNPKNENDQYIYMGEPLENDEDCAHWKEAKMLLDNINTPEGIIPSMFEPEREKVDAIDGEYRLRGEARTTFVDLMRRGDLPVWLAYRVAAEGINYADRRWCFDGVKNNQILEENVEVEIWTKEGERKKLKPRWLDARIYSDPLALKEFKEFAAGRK
Assay type: functional, Thailand/16681/1984
pIC50: −log10 of the molar value.

Which pIC50 is reported for this compound? O=C1Cc2c(cccc2C(=O)Nc2ccc(O[C@H]3CCOC3)nc2)N1
< 4.00

Name the reported pIC50 value associated with the compound CCNC(=O)Nc1cc(Cl)cc(C(=O)Nc2cccc(-n3nn[nH]c3=O)c2)c1
< 4.00

What does the data say about its pIC50? Entry: CC(C)NC(=O)[C@H](Nc1ccc2c(c1)CN(C)C2(C)C)c1cc(Cl)cc2[nH]ncc12
4.00

Quick one: pIC50 for CCn1c(=O)c(N2CC[C@H](c3cnccn3)C2)nc2ccccc21 ?
< 4.00

Given N#Cc1csc(CSc2nnc(C(F)(F)F)s2)n1 , state its recorded pIC50.
< 4.00

---

system under test: Genome polyprotein (dengue virus type 2, UniProt P29990)
Type: functional, Thailand/16681/1984
Exercise: for every item that follows, state its recorded IC50.

API: value(readout=IC50, system=Genome polyprotein (dengue virus type 2, UniProt P29990)) for record C=CC[C@H](Nc1cccc(C(=O)O)c1)c1cc(Cl)cc2[nH]ncc12
> 100 µM

Lab note: need IC50 for Cc1nc2cc(Cl)ccc2cc1C(=O)Nc1ccc2c(c1)CNC2 on Genome polyprotein (dengue virus type 2, UniProt P29990), anyone have it?
> 100 µM

Query IC50 on Genome polyprotein (dengue virus type 2, UniProt P29990) for NC[C@H]1CC[C@@H](NC(=O)c2cc(Cl)cc3[nH]ncc23)CC1
> 100 µM

Could you share what IC50 was measured for CC(C)(C)Cn1c(=O)[nH]c2cccc(C(=O)Nc3cccc(CN)c3)c21 , tested on Genome polyprotein (dengue virus type 2, UniProt P29990)?
> 100 µM

// map NCc1cccc(NC(=O)c2cccc3c2O[C@H](c2ccccc2)C(=O)N3)c1 to recorded IC50 (system: Genome polyprotein (dengue virus type 2, UniProt P29990))
> 100 µM

Hello, I am looking for reported IC50 with Genome polyprotein (dengue virus type 2, UniProt P29990) for CS(=O)(=O)NC(=O)C[C@H]1NCc2cc(NC(=O)c3cc(Cl)cc4[nH]ncc34)ccc21 . Could you help?
> 300 µM

Please tell me: IC50 of O=C(NCCc1nc2ccccc2[nH]1)c1cc2ccc(F)cc2s1 , system Genome polyprotein (dengue virus type 2, UniProt P29990)?
> 100 µM

Any idea what IC50 came out for NCc1cccc(NC(=O)c2ccc(F)c(NC(=O)OCc3ccccc3)c2F)c1 on Genome polyprotein (dengue virus type 2, UniProt P29990)?
> 100 µM

Kindly state the measured IC50 obtained for C=CC[C@H](Nc1cccc(C2(C(=O)O)CCC2)c1)c1cc(Cl)cc(NC(=O)OCc2ccccc2)c1 with Genome polyprotein (dengue virus type 2, UniProt P29990).
17.2 µM

Report IC50 for Cc1c(C(=O)Nc2cc(C(=O)N3CC[C@H](O)C3)ccn2)cc(C2CC2)n1C tested on Genome polyprotein (dengue virus type 2, UniProt P29990).
> 100 µM

---

Would you kindly list IC50 for each of these molecules?
system under test: Genome polyprotein (dengue virus type 2, UniProt P29990)
Format: functional, Thailand/16681/1984

// returns reported IC50 for input Cc1c(C(=O)Nc2cc(C(=O)N3CC(C(N)=O)C3)ccn2)cc(C2CC2)n1C
> 100 µM

Record request: IC50 value, item O=C1Cc2c(cccc2C(=O)Nc2ccc3c(c2)C(=O)OC3)N1
> 100 µM

Record request: IC50 value, item COc1cc(C(=O)Nc2ccc3c(c2)CNC3)cc2cnn(C)c12
> 100 µM

Please look up its IC50: O=C(NCc1ccc(F)cc1)[C@H](Nc1ccc2c(c1)CNC2)c1cc(Cl)cc2[nH]ncc12
> 100 µM

What does the data say about its IC50? Entry: NCc1cc(Cl)cc(C(=O)Nc2cc([C@H]3CCOC3)ccn2)c1
> 100 µM

---

system under test: Genome polyprotein (dengue virus type 2)
Type: functional, Thailand/16681/1984
So I've got a bunch of molecules here, and I need their IC50 values.

Please look up its IC50: C[C@H](N)c1cccc(NC(=O)c2cc(Cl)cc(NC(=O)OCc3ccccc3)c2)c1
68.6 µM

Which IC50 value is on record for Cc1c(C(=O)Nc2cc(C(=O)N3Cc4cn[nH]c4C3)ccn2)cc(C2CC2)n1C ?
> 99.5 µM

Data request, read-out IC50, for O=C(NCc1ccco1)c1csc(Br)c1
> 99.5 µM

Quick one: IC50 of CCn1cc(-c2ccc(C(F)F)nc2)nc(N2CC[C@@H](CO)C2)c1=O ?
> 99.5 µM

Bench note: what IC50 did O=C(Nc1cc(Cl)cc(N[C@H](C#CCO)c2ccc(-c3nn[nH]n3)cc2)c1)OCc1ccccc1 show?
26.4 µM

IC50 lookup needed for CN(C)C(=O)C[C@H]1NCc2cc(NC(=O)c3cc(F)cc4[nH]ncc34)ccc21 , thanks.
> 99.5 µM

What does the record list as IC50 for O=C(Nc1ccc2c(c1)CN[C@H]2CO)c1cc(F)cc2[nH]ncc12 ?
> 99.5 µM

Look up IC50 for this molecule: Cc1cc(C#N)cc2c(Cc3ccc(-c4nnn[nH]4)cc3)c[nH]c12
74.3 µM

Requested read-out: IC50. Entry: NCCc1ccc(NC(=O)c2cc(Cl)cc(NC(=O)OCc3ccccc3)c2)cc1
30.9 µM

# get_value(readout='IC50', item= NCc1cccc(NC(=O)[C@H](NC(=O)OCc2ccccc2)C2CCN(Cc3ccccn3)CC2)c1 )
> 99.5 µM

---

Please provide measured pIC50 for the entries that follow.
system under test: Genome polyprotein (dengue virus type 2, UniProt P29990)
Type: functional, Thailand/16681/1984
pIC50: −log10 of the molar value.

// query pIC50 value for entry Cc1ccc(NS(=O)(=O)c2ccc(Oc3ccccc3Cl)cc2)cc1CN
< 4.00

Quick one: pIC50 of N[C@H]1CC[C@H](CNC(=O)[C@@H](NC(=O)OCc2ccccc2)c2ccc(OCc3ccccc3)cc2)CC1 ?
< 4.00

Item Nc1ccc(/C=C/C(=O)C(=O)N2CCN(CCc3ccccc3)CC2)cc1 has what recorded pIC50?
< 4.00

Which value of pIC50 has been reported for CC(C)(C)OC(=O)Nc1cccc2[nH]cc(CN3CCC(c4cscn4)CC3)c12 in the records?
< 4.00

Which pIC50 value belongs to Cc1nc(C2CC2)[nH]c1C(=O)Nc1cc(CCCN)ccn1 ?
< 4.00

Param item = Cn1ccc(-c2cc(F)cc(C(=O)Nc3ccc4c(c3)CNC4)c2)cc1=O ; retrieve measured pIC50.
< 4.00

Which measured pIC50 value corresponds to O=C(O)COc1cccc(NC(=O)c2cc(Cl)cc(NC(=O)OCc3ccccc3)c2)c1 ?
4.34

State the recorded pIC50 for this entry: O=C(Nc1ccc2c(c1)CS(=O)(=O)C2)c1cc(Cl)cc2[nH]ncc12
< 4.00

Give its pIC50 value. Item: NCc1cc(C(=O)N2CCOCC2)cc([C@@H]2C[C@H]2c2cc(Cl)cc(NC(=O)OCc3ccccc3)c2)c1
4.35

Look at this compound and give its reported pIC50. COc1ccccc1-c1ccc([C@@H](NC(=O)OCc2ccccc2)C(=O)Nc2cccc(CN)c2)cc1
< 4.00
